System: OVCAR-5 ovarian
Test: NCI-60 one-dose screen, 48 h (100 = growth as untreated, 0 = no growth, -100 = all killed)
Settings: 10 µM unless noted
The panel holds about 83,000 compounds, 20% with a hit somewhere; the sample as a whole holds those more often.
Would you mind telling me the reported growth of each entry?
One number for each entry, in %.

Observe how each entry below is paired with its result.
>  <Molecule>
CCOC(=O)c1cnc2ccc(OC)cc2c1Nc1cccc(S(=O)(=O)NC)c1

>  <Experimental Value>
102

$$$$
>  <Molecule>
COc1ccc(-c2csc(NC(=O)CN3CCN(c4cc5c(cc4F)c(=O)c(C(=O)O)cn5C4CC4)CC3)n2)cc1

>  <Experimental Value>
37.4

$$$$
>  <Molecule>
Nc1nc(-c2ccc(F)cc2)cc(-c2cnn(-c3ccccc3)n2)n1

>  <Experimental Value>
110

$$$$
>  <Molecule>
CCCCCCCCCC(=O)Oc1ccc(/C(=C(/C)Cc2cccc(OC)c2)c2ccc(OCCN(C)C)cc2)cc1

>  <Experimental Value>
101

$$$$
>  <Molecule>
COc1ccc(-c2c3c(nc4n[nH]c(-c5ccc(Cl)cc5)c24)-c2ccccc2C(=O)C3=O)cc1

>  <Experimental Value>
51.5

$$$$

Could you report growth for every entry in the following list?
1. O=C(O)c1cn(C2CC2)c2cc(N3CCN(Cc4nc5c(cnn5-c5ccc([N+](=O)[O-])cc5)c(=O)[nH]4)CC3)c(F)cc2c1=O
2. Cc1ccc(-c2nc(/C=N/Nc3cc(C)nc4ccc(Br)cc34)c(C)o2)cc1
3. COCCCNc1nc(NC(=O)c2ccc(F)cc2C)cc(-c2cccnc2)n1
4. COc1cc(-c2nc3ccccc3s2)ccc1NC(=O)COc1ccc(Cl)cc1
5. O=C(CN1CCN(c2cc3c(cc2F)c(=O)c(C(=O)O)cn3C2CC2)CC1)Nc1nc(-c2ccccc2)cs1
6. N=c1c2ccccc2nc2n1CCCCC2
7. Cc1ccc(C2CC3c4ccccc4C2C2CCCCN32)cc1 (stereo not drawn)
8. COc1ccc(/C=C/C(=O)c2c(O)c(C)c(O)c3c2OC2=CC(O)=C(C(C)=O)C(=O)[C@]23C)cc1

Out:
103
-68.7
106
61.8
97.7
96.1
96.2
7.96

----------
System: SF-268 CNS
Assay: NCI-60 one-dose screen, 48 h (100 = growth as untreated, 0 = no growth, -100 = all killed)
Conditions: 10 µM unless noted
About 83,000 compounds went through this panel and 20% of them were active in at least one assay; those are over-represented in the sample as a whole.
Would you mind telling me the reported growth of each entry?
One number for each entry, in %.

Could you report growth for every entry in the following list?
1. Nc1cc(-c2nc3sccn3c2-c2ccnc(NCCCNS(=O)(=O)c3ccc(F)cc3)n2)ccc1F
2. CCCCCCCCCCCCCC(=O)C(C)N (stereo not drawn)
3. O=C(Nc1ccc(F)cc1)Nc1ccc(CCO)cc1
4. CC1CN(C(C)C)C(=S)N(c2ccccc2)C1=O (stereo not drawn)
5. CCNS(=O)(=O)c1ncnc2nc[nH]c12

Out:
1. 62
2. 37.7
3. 109
4. 98.8
5. 132

Could you report growth for every entry in the following list?
1. CSc1nc2sc3c(c2c(=O)n1-c1ccc(C(C)C)cc1)CCC(=O)C3
2. COc1cc(OC)c(/C=C/C(=O)c2c(OC)cc(OC)cc2OC)c(OC)c1
3. Oc1c(Cl)cc(Cl)cc1CNc1nccnn1
4. CC1=C(NCCN2CCCC2)C(=O)c2c(OCc3ccc(F)c(Cl)c3)cccc2C1=O
5. COc1cccc(NC(=O)c2sc3nc4c(cc3c2N)CN(Cc2ccccc2)CC4)c1
6. COc1cc(OC)c(/C=C/S(=O)(=O)Cc2cnc(OC)c(N)c2)c(OC)c1

Out:
[18.9, 22.1, 96.6, 70.5, 42.9, 38]

Could you report growth for every entry in the following list?
1. COc1ccc(C(=O)/C=C/c2cc3ccccc3[nH]c2=O)cc1
2. COc1cc(-c2nc3ccccc3s2)ccc1NC(=O)COc1ccc(Cl)cc1
3. COC(=O)C12C3C(=O)N(c4ccc(OC)cc4)C(=O)C3C(c3cn(-c4ccccc4)nc3C)N1[C@H](c1cn(-c3ccccc3)nc1C)[C@@H]1C(=O)N(c3ccc(OC)cc3)C(=O)[C@@H]12 (stereo partly drawn)
4. COc1cc2nc3cc([N+](=O)[O-])ccc3c(NCCCNCC(C)(C)O)c2cc1OC

Out:
28.9
29.4
104
-57.4

Could you report growth for every entry in the following list?
1. O=C(O)c1cn(C2CC2)c2cc(N3CCN(Cc4nc5c(cnn5-c5ccc([N+](=O)[O-])cc5)c(=O)[nH]4)CC3)c(F)cc2c1=O
2. CCN(CC)CCC(=O)c1ccc(OC)c2ccccc12
3. CN1CCN(Cc2ccc(NC(=O)c3[nH]ncc3Nc3ccnc4ccsc34)cc2)CC1
4. CCCCCCCCCCCCCCCC(=O)OCC1OC(n2cnc3c(=S)nc(N)[nH]c32)C(OC(=O)CCCCCCCCCCCCCCC)C1OC(=O)CCCCCCCCCCCCCCC (stereo not drawn)

Out:
[96.4, 110, 20.3, 67.2]
